TESTED SYSTEM: fMet-Leu-Phe receptor (Homo sapiens)
Sequence (P21462 whole entry): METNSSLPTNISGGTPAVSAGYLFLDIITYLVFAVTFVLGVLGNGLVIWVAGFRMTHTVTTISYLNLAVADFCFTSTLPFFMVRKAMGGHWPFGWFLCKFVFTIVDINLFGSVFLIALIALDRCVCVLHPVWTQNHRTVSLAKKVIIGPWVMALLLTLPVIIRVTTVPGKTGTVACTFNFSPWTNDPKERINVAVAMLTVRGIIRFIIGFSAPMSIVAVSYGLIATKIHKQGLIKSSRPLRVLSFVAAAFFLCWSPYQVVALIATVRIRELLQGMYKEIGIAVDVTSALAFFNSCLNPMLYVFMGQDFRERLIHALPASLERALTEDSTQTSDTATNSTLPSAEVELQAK
ASSAY OVERVIEW: Inhibition of human FPR expressed in human U-937 cells by fluorescence based ligand binding assay
ATTRIBUTE MEASURED: IC50

// sample Cc1c(-c2ccccc2)nc2ccc(Br)cc2c1C(=O)NC[C@H](CC(=O)O)c1ccccc1Cl , its IC50 was 32 nM

----------
TESTED SYSTEM: Platelet-derived growth factor receptor beta (Homo sapiens, UniProt P09619)
Sequence (P09619 whole entry): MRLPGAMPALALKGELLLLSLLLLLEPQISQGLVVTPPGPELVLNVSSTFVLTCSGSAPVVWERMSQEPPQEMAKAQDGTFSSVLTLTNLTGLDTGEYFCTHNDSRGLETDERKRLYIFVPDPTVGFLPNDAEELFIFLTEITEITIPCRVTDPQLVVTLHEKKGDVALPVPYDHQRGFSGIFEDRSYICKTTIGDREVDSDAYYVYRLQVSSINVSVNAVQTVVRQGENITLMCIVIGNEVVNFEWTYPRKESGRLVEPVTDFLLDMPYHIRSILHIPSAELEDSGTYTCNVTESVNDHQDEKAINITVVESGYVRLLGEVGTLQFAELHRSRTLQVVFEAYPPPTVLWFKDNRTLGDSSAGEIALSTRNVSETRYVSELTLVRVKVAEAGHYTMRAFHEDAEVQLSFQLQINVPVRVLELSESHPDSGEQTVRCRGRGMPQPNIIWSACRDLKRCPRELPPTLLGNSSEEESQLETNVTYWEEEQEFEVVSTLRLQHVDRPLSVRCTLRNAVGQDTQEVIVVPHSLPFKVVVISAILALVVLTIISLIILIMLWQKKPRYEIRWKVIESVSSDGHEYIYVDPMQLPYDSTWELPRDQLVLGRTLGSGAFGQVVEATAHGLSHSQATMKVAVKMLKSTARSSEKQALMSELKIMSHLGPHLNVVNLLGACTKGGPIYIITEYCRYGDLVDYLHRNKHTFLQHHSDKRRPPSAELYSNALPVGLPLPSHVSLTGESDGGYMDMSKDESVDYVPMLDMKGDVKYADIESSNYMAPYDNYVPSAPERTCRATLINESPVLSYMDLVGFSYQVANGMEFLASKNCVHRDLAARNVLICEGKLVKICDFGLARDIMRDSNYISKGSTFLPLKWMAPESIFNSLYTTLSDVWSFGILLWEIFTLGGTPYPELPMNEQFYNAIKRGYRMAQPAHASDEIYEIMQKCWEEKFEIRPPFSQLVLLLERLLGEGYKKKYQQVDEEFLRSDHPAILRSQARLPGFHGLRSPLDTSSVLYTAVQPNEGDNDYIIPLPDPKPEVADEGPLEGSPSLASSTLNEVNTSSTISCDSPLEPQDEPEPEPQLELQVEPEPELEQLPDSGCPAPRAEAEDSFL
ASSAY OVERVIEW: Inhibition of PDGFRbeta (unknown origin) by enzymatic assay
ATTRIBUTE MEASURED: IC50 (nM)
State the answer as a number, implicitly in nM.

// sample COC(=O)c1ccc2c(c1)NC(=O)/C2=C(\Nc1ccc2c(c1)CCN2C(=O)CN1CCOCC1)c1ccccc1 , its IC50 was 25
